Molecular target: MUC1 on HCT116/MUC1 cells (human, UniProt P15941 24-1255)
Sequence (P15941 24-1097, chain 1 of 2): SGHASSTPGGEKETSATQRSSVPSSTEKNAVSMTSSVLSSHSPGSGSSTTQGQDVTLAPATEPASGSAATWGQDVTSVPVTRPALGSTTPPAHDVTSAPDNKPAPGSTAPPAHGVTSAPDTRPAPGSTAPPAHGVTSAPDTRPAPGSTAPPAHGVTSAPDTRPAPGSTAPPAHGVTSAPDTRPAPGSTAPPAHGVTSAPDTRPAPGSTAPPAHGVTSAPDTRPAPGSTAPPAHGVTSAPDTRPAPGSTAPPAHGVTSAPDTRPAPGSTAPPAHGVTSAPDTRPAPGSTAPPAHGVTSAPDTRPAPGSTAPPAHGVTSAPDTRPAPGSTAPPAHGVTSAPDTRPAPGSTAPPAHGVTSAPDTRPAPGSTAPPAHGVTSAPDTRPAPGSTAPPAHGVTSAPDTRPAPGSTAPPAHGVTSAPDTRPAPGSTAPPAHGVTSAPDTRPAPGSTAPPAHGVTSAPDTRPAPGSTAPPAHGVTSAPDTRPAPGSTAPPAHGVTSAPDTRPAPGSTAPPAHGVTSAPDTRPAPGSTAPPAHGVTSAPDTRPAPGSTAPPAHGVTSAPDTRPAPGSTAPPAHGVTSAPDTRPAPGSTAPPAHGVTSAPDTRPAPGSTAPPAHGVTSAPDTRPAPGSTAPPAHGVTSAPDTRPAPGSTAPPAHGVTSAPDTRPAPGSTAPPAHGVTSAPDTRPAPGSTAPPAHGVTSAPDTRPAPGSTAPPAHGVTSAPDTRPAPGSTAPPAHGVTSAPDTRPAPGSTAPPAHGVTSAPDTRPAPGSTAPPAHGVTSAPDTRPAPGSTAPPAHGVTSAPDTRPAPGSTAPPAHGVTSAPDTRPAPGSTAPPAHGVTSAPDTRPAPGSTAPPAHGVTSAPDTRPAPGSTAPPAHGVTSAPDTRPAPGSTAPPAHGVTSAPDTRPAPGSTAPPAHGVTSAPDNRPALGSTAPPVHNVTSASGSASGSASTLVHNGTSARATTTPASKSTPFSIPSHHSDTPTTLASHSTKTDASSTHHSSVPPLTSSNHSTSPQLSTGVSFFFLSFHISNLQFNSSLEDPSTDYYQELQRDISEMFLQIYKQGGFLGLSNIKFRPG
Sequence (P15941 1098-1255, chain 2 of 2): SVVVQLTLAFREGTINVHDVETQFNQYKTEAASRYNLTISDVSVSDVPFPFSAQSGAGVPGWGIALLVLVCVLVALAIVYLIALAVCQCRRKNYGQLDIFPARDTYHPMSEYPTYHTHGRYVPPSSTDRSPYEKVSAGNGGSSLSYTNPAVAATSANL
Assay: flow cytometry on HCT116/MUC1 cells; antibody at 0.411523 nM
For each entry below, report its FACS titration signal value.
Reply briefly: the number, and no unit.

For reference, reported FACS titration signal for VH5 + VL2 (antibody, V domains shown) VH: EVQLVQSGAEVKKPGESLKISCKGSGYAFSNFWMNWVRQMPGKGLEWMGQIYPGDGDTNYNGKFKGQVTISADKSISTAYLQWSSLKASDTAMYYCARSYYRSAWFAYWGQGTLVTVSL VL: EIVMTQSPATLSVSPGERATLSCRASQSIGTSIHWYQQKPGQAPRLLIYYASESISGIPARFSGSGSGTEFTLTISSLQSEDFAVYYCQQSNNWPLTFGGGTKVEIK stands at 9.71

For reference, reported FACS titration signal for VH2 + VL3 (antibody, V domains shown) VH: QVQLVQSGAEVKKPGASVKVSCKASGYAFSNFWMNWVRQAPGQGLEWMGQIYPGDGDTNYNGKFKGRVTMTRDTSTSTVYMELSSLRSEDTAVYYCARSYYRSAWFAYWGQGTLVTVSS VL: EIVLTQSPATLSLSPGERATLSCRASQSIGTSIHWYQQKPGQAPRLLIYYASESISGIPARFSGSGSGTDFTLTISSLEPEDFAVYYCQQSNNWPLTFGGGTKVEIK stands at 6.48

For reference, reported FACS titration signal for VH1 + VL4 (antibody, V domains shown) VH: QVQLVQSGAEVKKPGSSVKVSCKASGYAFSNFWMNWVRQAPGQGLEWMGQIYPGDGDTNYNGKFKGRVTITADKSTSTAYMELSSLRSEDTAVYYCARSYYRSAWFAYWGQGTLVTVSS VL: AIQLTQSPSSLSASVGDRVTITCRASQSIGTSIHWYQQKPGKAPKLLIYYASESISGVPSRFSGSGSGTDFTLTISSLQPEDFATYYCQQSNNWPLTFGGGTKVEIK stands at 10.1

For reference, reported FACS titration signal for VH1 + VL3 (antibody, V domains shown) VH: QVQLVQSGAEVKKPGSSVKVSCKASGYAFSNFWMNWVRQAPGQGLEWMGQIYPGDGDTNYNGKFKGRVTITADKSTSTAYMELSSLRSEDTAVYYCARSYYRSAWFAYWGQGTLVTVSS VL: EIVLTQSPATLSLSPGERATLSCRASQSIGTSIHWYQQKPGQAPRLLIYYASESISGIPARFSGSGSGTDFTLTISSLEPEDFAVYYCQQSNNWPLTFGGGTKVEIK stands at 6.22
